Molecular target: human TAS1R2-WT/TAS1R3-G832R (Homo sapiens, UniProt Q7RTX0+Q8TE23, G832R)
Construct: expressed in transfected cells; host or cells: HEK293T stably expressing Gα16gust44
Sequence (Q8TE23 20-839): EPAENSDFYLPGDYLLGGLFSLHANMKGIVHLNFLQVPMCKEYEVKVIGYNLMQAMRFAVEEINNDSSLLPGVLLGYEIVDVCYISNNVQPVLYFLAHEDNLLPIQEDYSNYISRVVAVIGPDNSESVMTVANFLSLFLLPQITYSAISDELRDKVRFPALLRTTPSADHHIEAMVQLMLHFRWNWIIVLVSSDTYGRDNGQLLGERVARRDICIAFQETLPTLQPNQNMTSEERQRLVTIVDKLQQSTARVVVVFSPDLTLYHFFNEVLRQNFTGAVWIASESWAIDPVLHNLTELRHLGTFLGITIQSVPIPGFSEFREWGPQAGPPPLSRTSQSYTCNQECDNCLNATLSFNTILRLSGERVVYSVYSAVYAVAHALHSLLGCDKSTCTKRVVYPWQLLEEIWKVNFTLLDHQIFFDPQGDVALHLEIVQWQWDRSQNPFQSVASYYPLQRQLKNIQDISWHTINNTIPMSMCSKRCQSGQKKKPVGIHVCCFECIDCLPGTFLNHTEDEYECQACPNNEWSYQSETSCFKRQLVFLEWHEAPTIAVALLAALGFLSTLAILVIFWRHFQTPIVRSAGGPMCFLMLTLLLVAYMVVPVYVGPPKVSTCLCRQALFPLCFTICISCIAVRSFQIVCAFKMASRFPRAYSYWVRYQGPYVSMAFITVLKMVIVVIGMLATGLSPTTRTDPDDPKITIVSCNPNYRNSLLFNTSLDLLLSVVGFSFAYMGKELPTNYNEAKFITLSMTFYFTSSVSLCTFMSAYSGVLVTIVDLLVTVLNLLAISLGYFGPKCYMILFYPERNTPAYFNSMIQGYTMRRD
Sequence (Q7RTX0 21-852 G832R): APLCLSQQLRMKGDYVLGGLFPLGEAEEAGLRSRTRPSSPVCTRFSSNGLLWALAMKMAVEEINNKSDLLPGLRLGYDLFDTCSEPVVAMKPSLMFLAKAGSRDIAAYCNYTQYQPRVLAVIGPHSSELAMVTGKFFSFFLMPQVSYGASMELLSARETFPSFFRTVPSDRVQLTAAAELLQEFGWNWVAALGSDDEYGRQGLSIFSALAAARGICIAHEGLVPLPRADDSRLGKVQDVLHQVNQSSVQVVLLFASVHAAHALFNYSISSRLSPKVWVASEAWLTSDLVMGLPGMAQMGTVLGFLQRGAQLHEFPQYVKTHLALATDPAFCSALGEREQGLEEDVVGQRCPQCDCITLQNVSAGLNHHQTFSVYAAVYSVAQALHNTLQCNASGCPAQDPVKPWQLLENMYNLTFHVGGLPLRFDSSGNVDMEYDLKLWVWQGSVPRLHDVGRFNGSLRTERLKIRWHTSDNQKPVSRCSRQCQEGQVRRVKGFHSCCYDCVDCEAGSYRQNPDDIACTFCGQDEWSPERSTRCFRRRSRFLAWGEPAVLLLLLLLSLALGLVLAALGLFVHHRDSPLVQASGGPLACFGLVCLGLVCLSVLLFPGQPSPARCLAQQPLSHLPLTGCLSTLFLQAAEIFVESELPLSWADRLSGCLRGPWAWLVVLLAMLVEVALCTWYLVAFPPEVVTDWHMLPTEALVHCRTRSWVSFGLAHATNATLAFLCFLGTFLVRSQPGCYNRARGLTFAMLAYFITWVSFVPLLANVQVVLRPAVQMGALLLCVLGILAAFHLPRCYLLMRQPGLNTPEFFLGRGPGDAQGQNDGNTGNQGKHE
Assay: Calcium mobilisation assay, TAS1R2-WT with TAS1R3 variant G832R
Assay type: cell-based
Settings: maximal signal amplitude
# Lookup of reported Max ΔF/F0 keyed by entry
observable: Max ΔF/F0

{"compound": "C[C@H](CC[C@@H](O[C@@H]1O[C@H](CO[C@@H]2O[C@H](CO)[C@@H](O)[C@H](O)[C@H]2O)[C@@H](O)[C@H](O)[C@H]1O[C@@H]1O[C@H](CO)[C@@H](O)[C@H](O)[C@H]1O)C(C)(C)O)[C@H]1CC[C@@]2(C)[C@@H]3CC=C4[C@@H](CC[C@H](O[C@@H]5O[C@H](CO[C@@H]6O[C@H](CO)[C@@H](O)[C@H](O)[C@H]6O)[C@@H](O)[C@H](O)[C@H]5O)C4(C)C)[C@]3(C)[C@H](O)C[C@]12C [Mogroside V, mogroside V]", "observable": "Max ΔF/F0", "result": "1.23 ± 0.04"}
{"compound": "OC[C@H]1O[C@H](O[C@]2(CCl)O[C@H](CCl)[C@@H](O)[C@@H]2O)[C@H](O)[C@@H](O)[C@H]1Cl", "observable": "Max ΔF/F0", "result": "0.91 ± 0.02"}
{"compound": "C=C(C)[C@@H]1CC=C(/C=N/O)CC1", "observable": "Max ΔF/F0", "result": "1.18 ± 0.14"}
